Recorded values, source patent US20200308103A1.

assay: Solubility in aqueous sulfobutyl ether-β-cyclodextrin (SBEβCD) solution; type: physicochemical; details: 10 °C, aqueous with cosolvent or surfactant or cyclodextrin, thermodynamic from solid, 10 ° C., read-out: Solubility (dissolved / not dissolved)
measurement.label: solubility

Give its solubility value. Item: CNC(=O)[C@@](C)(C(=O)NO)N(C)C(=O)c1ccc(C#Cc2ccc([C@H](O)CO)cc2)cc1 [Type I crystals, reference compound] < 15.4 mg/mL

* * *

experiment: Solubility in aqueous sulfobutyl ether-β-cyclodextrin (SBEβCD) solution; format: physicochemical; conditions: 15 °C, aqueous with cosolvent or surfactant or cyclodextrin, thermodynamic from solid, 15 ° C., read-out: Solubility (dissolved / not dissolved)
measurement.label: solubility

Reported solubility, molecule CNC(=O)[C@@](C)(C(=O)NO)N(C)C(=O)c1ccc(C#Cc2ccc([C@H](O)CO)cc2)cc1 [Type I crystals, reference compound] : ____ < 15.4 mg/mL

* * *

assay: Solubility in aqueous sulfobutyl ether-β-cyclodextrin (SBEβCD) solution; assay type: physicochemical; conditions: 0 °C, aqueous with cosolvent or surfactant or cyclodextrin, thermodynamic from solid, 0 ° C., read-out: Solubility (dissolved / not dissolved)
measurement.label: solubility

Could you tell me which solubility is on file for CNC(=O)[C@@](C)(C(=O)NO)N(C)C(=O)c1ccc(C#Cc2ccc([C@H](O)CO)cc2)cc1 ? > 14.8 mg/mL

* * *

Assay: Solubility in aqueous sulfobutyl ether-β-cyclodextrin (SBEβCD) solution
Type: physicochemical
Settings: 25 °C, aqueous with cosolvent or surfactant or cyclodextrin, thermodynamic from solid, 25 ° C., read-out: Solubility (dissolved / not dissolved)
Experimental: 32.4 mL of water for injection was added to 6.00 g of sulfobutyl ether-β-cyclodextrin (CYCLOLAB Cyclodextrin Research & Development Laboratory Ltd.) (hereinafter also referred to as “SBEβCD”), and the solution was then stirred at 25° C. for 10 minutes. After the dissolution of the substance had been confirmed by visual observation, the mixed solution was cooled to 10° C. […]
measurement.label: solubility

Give its solubility value. Item: CNC(=O)[C@@](C)(C(=O)NO)N(C)C(=O)c1ccc(C#Cc2ccc([C@H](O)CO)cc2)cc1 [Type I crystals, reference compound] > 15.4 mg/mL

* * *

assay: Solubility in aqueous sulfobutyl ether-β-cyclodextrin (SBEβCD) solution; format: physicochemical; details: 20 °C, aqueous with cosolvent or surfactant or cyclodextrin, thermodynamic from solid, 20 ° C., read-out: Solubility (dissolved / not dissolved)
measurement.label: solubility

solubility lookup needed for CNC(=O)[C@@](C)(C(=O)NO)N(C)C(=O)c1ccc(C#Cc2ccc([C@H](O)CO)cc2)cc1 [Type I crystals, reference compound] , thanks. < 15.4 mg/mL
